Test system: HS 578T breast
measurement notes: NCI-60 one-dose screen, 48 h
condition details: 10 µM unless noted
Compounds without any hit were thinned out: in the full panel of roughly 83,000, 20% have a hit. Active and inactive are the calls of the source. The calls were made as follows: active = growth percent below 10; inactive = the rest.
The categories you may choose from are yes (1) = active, no (0) = inactive

Here's what some known entries look like.
smiles entry	category label
N#C/C(=C/c1ccc(O)c([N+](=O)[O-])c1)c1nc(-c2ccc([N+](=O)[O-])cc2)cs1	no (0)
C=C1C(=O)O[C@H]2[C@H]1CC/C(COC(=O)CCCCCCCC(=O)OC/C1=C/CC[C@@]3(C)O[C@H]3[C@H]3OC(=O)C(=C)[C@@H]3CC1)=C\CC[C@@]1(C)O[C@@H]21	yes (1)
C=C1C(=O)O[C@H]2[C@H]1CC/C(COC(=O)NCC(=O)Nc1ccc(OC)c(C(N)=O)c1O)=C\CC[C@@]1(C)O[C@@H]21	no (0)
N#Cc1c(-c2ccc(F)cc2)nc(N/N=C/c2cccc(O)c2)nc1N1CCOCC1	no (0)
O=C(/C(=C/c1ccc([N+](=O)[O-])cc1)SCc1ccc(F)cc1)c1ccc(Cl)cc1	no (0)
O=C(/C(=C\c1c(-c2ccccc2)[nH]c2ccccc12)S(=O)(=O)c1ccccc1)c1ccccc1	no (0)
C=C(C)[C@@H]1CCC=C2CC[C@]3(C)[C@H](CC[C@@H]4[C@@]5(C)CCCNC(C)(C)[C@@H]5CC[C@]43C)[C@H]21	no (0)

API: the following record is the query input.
Input: Check the results log: what was the call for Fc1ccc(N/N=C/c2ccc(-n3cccn3)cc2)cc1 ?
Output: no (0)

====

Tested on: NCI-H23 lung
measurement notes: NCI-60 one-dose screen, 48 h
condition details: 10 µM unless noted
This is part of a sample that, as a whole, favours compounds with a hit. Of some 83,000 tested, about 20% had one in any assay. Active and inactive are the calls of the source. How the source made its calls: active means growth percent below 10; inactive means the rest.
Select the correct class. Options are y for active, n for inactive and nothing else.

The following molecules have reported results that may help.
molecule	category label
NC(=O)c1ccc2nc3c(n2c1)C(=O)C(=O)c1ccccc1-3	y
CSc1nc(-c2cccs2)c2c(N)[nH]nc2n1	n
COc1cc2c(cc1OC)C(Sc1ccc(Cl)cc1)c1c(nc(N)c(C#N)c1N)O2 (stereo not given)	y

Input: Could you check what this test reported for CCOC(=O)C(=Cc1c(-c2ccccc2)[nH]c2ccccc12)C(=O)OCC ?
Output: n

Input: Fill in: this test's call for Nc1c(C(=O)Nc2ccccc2)sc2nc3c(cc12)CN(C(=O)OCc1ccccc1)CC3 is ___
Output: n

Input: Query: recorded result category for Oc1ccc(CNNc2ccnc3c(O)cccc23)c2cccnc12 in this test
Output: n

Input: For CC(=O)Nc1ccc2c(c1)Cc1cc(F)ccc1-2 , what call appears in the results of this test?
Output: n

Input: What outcome does the record of this test show for COc1ccc2nc(-c3ccc(Cl)cc3)cc(-c3nnc(SCC(=O)Nc4ccc(/C(C)=N\O)cc4)o3)c2c1 ?
Output: y

Input: Recorded call for c1ccc2c3c([nH]c2c1)C(c1ccc(C2NCCc4c2[nH]c2ccccc42)cc1)NCC3 (stereo not given) ?
Output: n

Input: Please indicate how the test categorized O=C(O)CCNC1CCCCC1 .
Output: n

Input: Which outcome was entered for the molecule N#Cc1ccc(Oc2ccc3ccc(=O)oc3c2)cc1 in this test?
Output: n

Input: // return assay outcome for CC(=O)Nc1c(C(=O)Nc2ccccc2)sc2nc3c(cc12)C(OC(C)=O)CCC3 (stereo not given)
Output: n

Input: Answer briefly: the call reported for CC(C)(C)c1ccc2oc(=O)n(SC(Cl)(Cl)Cl)c2c1 in this assay.
Output: n

Input: Which outcome was entered for the molecule Nc1c(C(=O)Nc2ccccn2)sc2nc3c(cc12)CCCCC3 in this test?
Output: n

Input: How did this test come out for C=C1C(=O)O[C@H]2[C@H]1CC/C(COC(=O)c1cn(C)c3ccccc13)=C\CC[C@@]1(C)O[C@@H]21 ?
Output: n

Input: Identify the outcome logged in this assay for the molecule shown: CC[C@]12C=CCN3CC[C@@]4(c5ccc(OC)cc5N(C)[C@H]4[C@@](O)(C(=O)OC)[C@@H]1OC(=O)CCC(=O)O[C@H]1CC[C@H]4[C@@H]5CC[C@H]6CC(=O)CC[C@]6(C)[C@H]5CC[C@]14C)[C@@H]32
Output: n

Input: Assay outcome for O=C1CCC23OC(C(O)c4ccccc4N12)C1C(Br)=NOC13 (stereo not given) : what was it?
Output: n

Input: Record request — test call for CC1CCN(CCCCCOc2ccc3oc4ccccc4c(=O)c3c2)CC1
Output: n

Input: Any idea what this test logged for COc1cc(C2=N/C(=C\c3cc4ccccc4nc3Oc3ccccc3)C(=O)N2C(=N)N)cc(OC)c1OC ?
Output: n

Input: State the result this test recorded for O=C(Nc1ccc2ncnc(Nc3ccc(F)c(Cl)c3)c2c1)c1ccccc1 .
Output: n

====

System: SNB-19 CNS
measurement notes: NCI-60 one-dose screen, 48 h (100 = growth as untreated, 0 = no growth, -100 = all killed)
condition details: 10 µM unless noted
Compounds without any hit were thinned out: in the full panel of roughly 83,000, 20% have a hit.
experimental readout: growth (%)
Give the quantity in %, number only.

molecule	experimental readout	unit abbreviation	recorded number
C=C(C)[C@@H]1CC[C@]2(C(=O)OCCOCCOCC[P+](c3ccccc3)(c3ccccc3)c3ccccc3)CC[C@]3(C)[C@H](CC[C@@H]4[C@@]5(C)CC[C@H](C)C(C)(C)[C@@H]5CC[C@]43C)[C@@H]12	growth	%	-72.2
Nc1n[nH]c2cccc(C#Cc3cccc(NC(=O)c4cc(N5CCOCC5)cc(C(F)(F)F)c4)c3)c12	growth	%	83.9
CC(=O)O[C@@H]1C[C@]2(C)[C@H]3[C@H](O)C[C@@H]4C5=CC(C)(C)CC[C@]5(C)CC[C@@]4(C)[C@]3(C)CC[C@H]2C(C)(C)[C@H]1O	growth	%	104
CN1C(=O)c2cc(Cl)nc3c(NC(=O)c4cccc(Cl)c4)c(Cl)c(NC(=O)c4cccc(Cl)c4)c1c23	growth	%	2.15
COc1ccc(/C=C(/C(=O)N2CCCC2)c2cc(OC)c(OC)c(OC)c2)cc1	growth	%	46.8
Cn1c2c(c3ccc(-c4ccn[nH]4)cc3c1=O)C(=O)c1ccccc1-2	growth	%	27.4
COc1ccc(-n2cc(COc3ccc4c5ccnc(C)c5n(CC(C)C)c4c3)nn2)cc1	growth	%	78.4
Cc1nccc2c3ccc(OCc4cn(-c5ccc(Cl)cc5)nn4)cc3n(CC(C)C)c12	growth	%	38.9

The molecule listed as O=C1CCC23OC(C(O)c4ccccc4N12)C1C(Br)=NOC13 (stereo not drawn) has a reported growth of 108

# molecule O=C(Nc1ccccc1)NS(=O)(=O)c1c[nH]c(=S)[nH]c1=O ; its growth = 106

# growth of N#Cc1c(-c2ccc(F)cc2)c(C#N)c2c(C#N)c(N)nn2c1N = 108

Quick note, growth for N#Cc1c(-c2ccc(F)cc2)nc(N=Nc2c(O)[nH]c3ccc(Cl)cc23)nc1N1CCOCC1 landed at 39.8

molecule CCCCc1n(Cc2ccc3ccccc3c2)c2ccccc2[n+]1Cc1ccc2ccccc2c1 , growth observed: -92.5

====

Test system: NCI-H460 lung
measurement notes: NCI-60 one-dose screen, 48 h
condition details: 10 µM unless noted
About 83,000 compounds went through this panel and 20% of them were active in at least one assay; those are over-represented in the sample as a whole. Activity calls are given as the source filed them. How the source made its calls: active means growth percent below 10; inactive means the rest.
Pick one and only one: TRUE = active, FALSE = inactive

Before answering, review these 8 worked examples.
>>> df
                                   compound  category_label
0  CCc1n(Cc2ccc3ccccc3c2)c2ccccc2[n+]1Cc1ccc2ccccc2c1           FALSE
1  C#CC[C@@H]1C[C@]2(C)[C@H]3CC[C@@H]4[C@H]5[C@H](C(=C)C)CC[C@]5(C(=O)O)CC[C@@]4(C)[C@]3(C)CC[C@H]2C(C)(C)[C@H]1O           FALSE
2  CCOC(=O)C1=C(C)n2nc(CC#N)c(C#N)c2NC1c1ccc(CC)cc1 (centres undefined)           FALSE
3  COc1ccccc1-c1ccc2nc(NC(=O)Nc3cc(C(F)(F)F)cc(C(F)(F)F)c3)sc2c1            TRUE
4  CCCCCCN1C(=O)CN=C1Nc1ccc2cc3ccc(NC4=NCC(=O)N4CCCCCC)cc3nc2c1           FALSE
5  CCCCc1nc(Cl)c(C2CC(c3ccc(Cl)cc3)=NN2c2cc(Cl)cc(Cl)c2)[nH]1 (centres undefined)           FALSE
6  COc1ccc2c(c1)Oc1nc(N)c(C#N)c(N)c1C2Sc1ccc(O)cc1 (centres undefined)           FALSE
7  Cn1c2ccccc2c2c(OC(=O)c3ccccc3)c3c(nc21)-c1ccccc1C3           FALSE

Input: Test call, this compound: O=C(Nc1ccc(N=Cc2ccccc2O)cc1)NC1C=c2ccccc2=CC1 (centres undefined)
Output: FALSE

Input: Per the assay record, what outcome was assigned to O=CN1N=C(c2ccc(F)cc2)CC1c1cccc(Nc2ccnc3cc(C(F)(F)F)ccc23)c1 (centres undefined) ?
Output: FALSE

Input: Fill in: this test's call for Oc1ccccc1-c1nc2c3ccccc3c3ccccc3c2o1 is ___
Output: FALSE

Input: Hello, I am checking results. What call was entered for CCc1ccc(OCc2ccccc2C(=O)Nc2ccc3nc(C)cc(N)c3c2)cc1 ?
Output: TRUE

Input: Hello, I am checking results. What call was entered for Nc1ccc(C(=O)Nc2cccc(C(=O)Nc3ccc4c(O)c(N=Nc5ccc(N=Nc6ccc(S(=O)(=O)O)cc6)cc5)c(S(=O)(=O)O)cc4c3)c2)cc1 ?
Output: FALSE
